- Test system: HepG2 cells
- assay: Cell proliferation assay (MTT), HepG2
- Type: cell-based
- conditionSummary: Homo sapiens, HepG2, Table 2; average of at least three independent replicates ± SD; read-out: Anti-proliferative activities (IC50, μM) HepG2
observedProperty: IC50
Write your answer as a measured quantity: the number, then the unit.

Some compounds with recorded IC50:
[[record]]
compound = "Cc1nn(-c2ccccc2)c2c1C(c1ccc(C(F)(F)F)cc1)C(C#N)=C(NS(=O)(=O)c1ccc(F)cc1F)O2 (stereo not shown)"
observedproperty = "IC50"
testresult = "7.56 µM"

[[record]]
compound = "Cc1ccc(S(=O)(=O)NC2=C(C#N)C(c3ccncc3)c3c(C)nn(-c4ccccc4)c3O2)cc1 (stereo not shown)"
observedproperty = "IC50"
testresult = "6.01 µM"

[[record]]
compound = "COc1ccc(S(=O)(=O)NC2=C(C#N)C(c3ccc(C(F)(F)F)cc3)c3c(C)nn(-c4ccccc4)c3O2)cc1 (stereo not shown)"
observedproperty = "IC50"
testresult = "2.28 µM"


Continue with the next compound.
The compound identified as Cc1nn(-c2ccccc2)c2c1C(c1ccc(C(F)(F)F)cc1)C(C#N)=C(NS(=O)(=O)c1cccs1)O2 (stereo not shown) registered its IC50 at 5.32 µM
